experiment: folding stability dG unfold (combined trypsin and chymotrypsin); higher = more stable
The reader will find reported folding stability dG unfold values listed item by item below.
readout label: folding stability dG unfold

[[record]]
input_sequence = "SAGGSPGQPYYIMIKLEWENPEDGEEHTFDIMFPVKSAEDAKDYILKELLPPGHKLKIDDISIMPMSAGGSA [r2_320_TrROS]"
readout_label = "folding stability dG unfold"
recorded_measurement = "1.4 kcal/mol"

[[record]]
input_sequence = "SAGGSAGGSAGGPMEPIELTFMIPHPNGHPIVAKTEIWRMKNGFFIKPEIYNPDGNPIPSAGGSAGGSAGGS [r10_1056_TrROS]"
readout_label = "folding stability dG unfold"
recorded_measurement = "-0.207 kcal/mol"

[[record]]
input_sequence = "SAGGSAGGPIDLDDIKIEEIEHERNPNGMMYHEVTIRFPGGKIPVWFHPNMSLDNAVDMLRAFISAGGSAGG [r6_233_TrROS]"
readout_label = "folding stability dG unfold"
recorded_measurement = "1.19 kcal/mol"

[[record]]
input_sequence = "SAGGSAGGSAGGLLEELKAKGYTVLSTPVPSPPDGVPTRTVLAKKGEGTVTFVVPAALLSAGGSAGGSAGGS [r10_35_JUSTAS]"
readout_label = "folding stability dG unfold"
recorded_measurement = "0.287 kcal/mol"

[[record]]
input_sequence = "SAGGSAGGSAGGMIAVLTYKDGTVRDFGPTASLEEILSIPADEIVRIEVRPVLPELGDLLSAGGSAGGSAGG [r7_190_TrMRF]"
readout_label = "folding stability dG unfold"
recorded_measurement = "0.251 kcal/mol"

[[record]]
input_sequence = "SSEILEKLAKELPDLEPVGVEEEPLPDGGRRLTLVARRPETGTYVRVTVDVPPGGGVASVEVEEVPVSRLSA [r9_274_JUSTAS]"
readout_label = "folding stability dG unfold"
recorded_measurement = "1.77 kcal/mol"

[[record]]
input_sequence = "SAGGKTIWIFFPPDNPEEFLEELAQLPNVTDVEVWRHNDYYMIEIRLEGLPIEIHYNPEGYYMIEIELSAGG [r13_907_TrROS]"
readout_label = "folding stability dG unfold"
recorded_measurement = "3.48 kcal/mol"


----------
Form field: folding stability dG unfold (one value per entry).
test: folding stability dG unfold from chymotrypsin proteolysis; higher = more stable
readout label: folding stability dG unfold (kJ/mol)

[[record]]
input_sequence = "SAGGSAGGSPWKKVKFKFMFPFPNYYVRISIEIWVNPGDNEIMIEMSIEIFPIPPGDNKAFKDSAGGSAGGS [r12_885_TrROS]"
readout_label = "folding stability dG unfold"
recorded_measurement = 16.3

[[record]]
input_sequence = "SAGGKLTITLPPGVKEVKIEVDKETNEVKVTVTVEVTDENGKKHKVTRTFTFKLEDGETVTVTVTLPSAGGS [r16_552_TrROS_Hall]"
readout_label = "folding stability dG unfold"
recorded_measurement = 22.7

[[record]]
input_sequence = "SAGGSAGGSASVTVSPTPDDTWRVEVTETRYFFDPDGRPIGPVTITSSRVVSSEEEAAALLSAGGSAGGSAG [r3_232_JUSTAS]"
readout_label = "folding stability dG unfold"
recorded_measurement = 1.66

[[record]]
input_sequence = "SKAEIVEIKIEKVEKDGKKYYKVKIKVKTKDGKIKEIEITFPEGMSEEEIKKKIEELAKELGIEKVEIKPSA [r9_1203_TrROS_Hall]"
readout_label = "folding stability dG unfold"
recorded_measurement = 19.7


----------
assay: folding stability dG unfold from chymotrypsin proteolysis; higher = more stable
readout label: folding stability dG unfold (kcal/mol)

[[record]]
input_sequence = "SAGGMTPEELEAAARAAAAALRAELEAGDPDVEVDLEVDPEKGTATFTVTDRATGRPRTLTVPFAELASAGG [r13_354_JUSTAS]"
unit_abbrev = "kcal/mol"
recorded_measurement = 1.94

[[record]]
input_sequence = "SAMDIGPEERAELLLRTLANIAKEEIEKGDLEKAKIFVINGIAEENPPLAERILKEAKELGLPVIILPESAG [r14_908_TrMRF]"
unit_abbrev = "kcal/mol"
recorded_measurement = 1.13

[[record]]
input_sequence = "SAGPRPIEIYVDPDGMINIRFPNNGREINIPIPKGAEIEIIELPDDYIVIEIKFGGETREFWIPPEDISAGG [r19_309_TrROS]"
unit_abbrev = "kcal/mol"
recorded_measurement = 3.08

[[record]]
input_sequence = "SGFTVEVEVEYYPETGVLEVTVTTDGSSEQLIRDVADFIKEAGLDFVIESVEVEESGEVTTITLKLYVPPSA [r9_164_TrMRF]"
unit_abbrev = "kcal/mol"
recorded_measurement = 4


----------
experiment: folding stability dG unfold from chymotrypsin proteolysis; higher = more stable
Think of 2 kcal/mol as a floor: if folding stability dG unfold stands on it or above, it is 1 (yes); beneath it, 0 (no).

[[record]]
input_sequence = "SAGGSAMKVIRIRPDDPRVKELLKKLEDAGYEVRYDEETGELYVTLPDGKVLKFKSLEELKKAGFESAGGSA [r15_94_TrROS_Hall]"
class = "1 (yes)"

[[record]]
input_sequence = "SAGGKEIYVVRIEVYYPSNGKVEEKEYVIEATPEEAEELAKKIAEAFKEEAGEEVEVLRVEIKVYDLSAGGS [r16_140_TrMRF]"
class = "1 (yes)"

[[record]]
input_sequence = "SAGGKPKEITLVVKVGETVEFPEGAEVTYDKETGTVTIKLPDGRTIRVEVTYNPDTDYLVVKITVEPSAGGS [r16_122_TrROS_Hall]"
class = "1 (yes)"

[[record]]
input_sequence = "SAGGSAGGSAGGGMMKTVLISLEGVDPSGGPSRRVEIELTLSPEEIPKVIEELAKAGRVLSAGGSAGGSAGG [r7_618_JUSTAS]"
class = "0 (no)"

[[record]]
input_sequence = "SAGGSAGGSYWFSITFKINFWVIDGNRIHPVPIEITILIKIPPIPPDEMKPEPTPDGEPKYDFSAGGSAGGS [r12_1031_TrROS]"
class = "1 (yes)"

[[record]]
input_sequence = "SAGGSAGSMSEIEGLTVLEEREEPDPATGTTVPTLVVRDPEKGELYVITATTDPATGKPTYSFDLVSAGGSA [r15_170_JUSTAS]"
class = "0 (no)"

[[record]]
input_sequence = "SAGGSAGGSKNVKTVTIPFNNMSPSKFIEQIKNHPVDAIEIEMPDPWYRRFLNWLKDEGIKVISAGGSAGGS [r12_610_TrROS]"
class = "0 (no)"

[[record]]
input_sequence = "SAGGSAMAPNVRPIPIFIDVPAEPFTRDPDGRIGLTPEELARRLAEEIRARTGAPIDTIVVHFHEPSAGGSA [r15_415_TrMRF]"
class = "0 (no)"

[[record]]
input_sequence = "SAGGSAGGSAGGSSFTIKVELKDENGNKYTITVTGTGSAETVKKELEKKYPNKIVKITGSAGGSAGGSAGGS [r4_412_TrMRF]"
class = "1 (yes)"

[[record]]
input_sequence = "SAGMPLRTVKVLVTINDKTEEKTLSEEELKALIESGELELLGKEPEENIVYVYKKVPPPVGSKTKKSLLSAG [r5_868_JUSTAS]"
class = "0 (no)"

[[record]]
input_sequence = "SAGGSAGGSAGMTIKEDPKTGTRVVRLPDGSVLYIEEKGDKIKKVYSDPVPPVPPGNPALASAGGSAGGSAG [r3_406_JUSTAS]"
class = "0 (no)"

[[record]]
input_sequence = "SKPILKIKINIPVLKDKNGKEIIPSPNDVLAALEKLGIPVDKAEITKIGKNTIPILILVDLVDGKAYVKDSA [r9_225_TrMRF]"
class = "0 (no)"

[[record]]
input_sequence = "SAGLEVVKKLAEELGFPVEILRVEYDPETGELTFEAVARPKDGKTRRVRIRIRVPKESDEVEIELEYFDSAG [r5_929_TrMRF]"
class = "1 (yes)"

[[record]]
input_sequence = "SAGGSAGGSAGGMVTTKTVVTFDPSGYITTTETIKVVGTDELLTKTSVTPVEPVPPLLSSAGGSAGGSAGGS [r10_928_JUSTAS]"
class = "0 (no)"


----------
assay: folding stability dG unfold from trypsin proteolysis; higher = more stable
Rule: folding stability dG unfold under 1 kcal/mol gives not met, otherwise met.

[[record]]
input_sequence = "SAGGSMTVVIVKLRPPDSPEVLYLPFRGRLPNGDWVPISLEELLEALEALPDLEVEEIIVAPPEEISAGGSA [r2_192_TrMRF]"
class = "met"

[[record]]
input_sequence = "SAGGSAGGSKETLTIKIKVEVKDENGEKKEVTVTLTIKAETKEEAEALLKELKEKYPNVKVEPSAGGSAGGS [r12_1043_TrROS_Hall]"
class = "met"

[[record]]
input_sequence = "SAGGSAGGSAGMILTEEVTVAVPTLSTADGTRHTTTVPELVVVELKLPPVPPEAVEKLLASAGGSAGGSAGG [r11_318_JUSTAS]"
class = "not met"

[[record]]
input_sequence = "SAGGSAGGSMKPVLTIPASVTDPEVAIAILREAKAALPEGTQLEVVMPGGAEEELKKAGLILKSAGGSAGGS [r12_992_JUSTAS]"
class = "not met"

[[record]]
input_sequence = "SIEIYEGPEEAEEMAEENGTPVIPIPPDMNLSEILKQLKNQPGLPPDQKIVIVIQWEPGQWYVIRIPIKPSA [r9_314_TrROS]"
class = "met"

[[record]]
input_sequence = "SAGGSAGGTATLVLPAAAFPSRPDGSLGLEEIRDVARPIAQEAFGTDDITLDVESHPDGFVTITFSSAGGSA [r15_562_TrMRF]"
class = "not met"

[[record]]
input_sequence = "SAGGSAGGSQKIEITKVEPERGPNGRPYHRVNIEIVIPDGKPRKFDFYFDDPEDLENMTIELPSAGGSAGGS [r20_130_TrROS]"
class = "not met"

[[record]]
input_sequence = "SAGGSAGGGGVAEEVAALLKALGLKVKKIEVEVEEVPPDKKVARVKVTAELPTKKVTFELRVEVSAGGSAGG [r6_532_TrMRF]"
class = "met"

[[record]]
input_sequence = "SAGGSASSYGIEIEFSEDPNSKTKKITITVTRPDGTVETVTITNPDITDEEAKKIGEELANEVANSSAGGSA [r15_526_JUSTAS]"
class = "met"

[[record]]
input_sequence = "SAGGSAGGSKKPKAKIKKIEFFPEGNKIVALVEFPDKVIKEIVFENLPPEEAIKKALEFAKKGSAGGSAGGS [r20_181_TrMRF]"
class = "met"

[[record]]
input_sequence = "SAGGKVKIIVFNKKTGEKIEIDLSKLKPGDIIKLPNGYYKIIDKKTKKIKVIKAKSIEELKKAIKKLSSAGG [r13_962_TrROS_Hall]"
class = "met"

[[record]]
input_sequence = "SAGGMSVTVSTHLSPEELRELVREIVEKNPGLEVKAVEVTDPATGEWRAVPLDEVPADRPVTVRVDLSRSAG [r5_357_JUSTAS]"
class = "not met"

[[record]]
input_sequence = "SAGGSAGGSASMTVVVEREEITRRDPSSDELFEEEVVRATTTEKDGVIETTTLPEEEWEKLSSAGGSAGGSA [r18_406_JUSTAS]"
class = "not met"

[[record]]
input_sequence = "SAGGSAGGSAGGSSSVSVDTDPETGLITVTTYSSSGGVTVTLYEKPPDGSLTPVSTTAVSAGGSAGGSAGGS [r4_106_JUSTAS]"
class = "met"

